target: cloned recombinant human HDAC-1 (Homo sapiens, UniProt Q13547); construct: made in house; host or cells: Baculovirus insect cell expression system; assay: Human HDAC-1 enzyme inhibition, Assay 1 ([3H]-acetylated histone substrate, scintillation counting); type: biochemical; conditions: Table 5F; read-out: Human HDAC-1 IC50
Sequence (Q13547 whole entry): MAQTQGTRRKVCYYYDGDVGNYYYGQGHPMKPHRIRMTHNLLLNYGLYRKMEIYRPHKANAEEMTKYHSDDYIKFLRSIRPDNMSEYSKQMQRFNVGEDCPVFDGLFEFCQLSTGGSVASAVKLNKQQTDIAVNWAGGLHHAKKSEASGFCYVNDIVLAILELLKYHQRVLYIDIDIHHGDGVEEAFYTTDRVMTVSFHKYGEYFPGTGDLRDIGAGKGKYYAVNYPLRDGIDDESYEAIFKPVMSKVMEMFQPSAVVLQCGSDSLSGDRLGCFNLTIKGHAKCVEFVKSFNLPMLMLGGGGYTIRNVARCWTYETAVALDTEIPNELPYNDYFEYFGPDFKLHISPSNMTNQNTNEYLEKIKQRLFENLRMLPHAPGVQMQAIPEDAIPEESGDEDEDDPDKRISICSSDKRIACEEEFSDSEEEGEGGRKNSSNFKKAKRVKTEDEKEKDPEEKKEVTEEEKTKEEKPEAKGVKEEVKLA
measured metric: IC50 (µM)

Nc1ccccc1NC(=O)c1ccc(CN2C(=O)COc3cccnc32)cc1	4
COc1ccc(NC(=O)N(Cc2ccc(C(=O)Nc3ccccc3N)cc2)c2ccc(OC)c(OC)c2)cc1OC	4
COc1cc(NCc2ccc(C(=O)Nc3ccccc3N)cc2)cc(OC)c1	1
COc1ccc(NCc2ccc(-c3ccc(C(=O)Nc4ccccc4N)cc3)cc2)cc1	3
Nc1ccccc1NC(=O)c1ccc(-c2ccc(C(=O)Nc3ccccc3N)cc2)cc1	3
Nc1ccccc1NC(=O)c1ccc(CSc2ncc[nH]2)cc1	2

I. Cc1nc(-c2ccc(C(=O)Nc3ccccc3N)cc2)no1
II. COc1cc(C2C=CC(c3ccc(C(=O)Nc4ccccc4N)cc3)O2)cc(OC)c1OC (stereo not drawn)
Hey, which is lower on measured IC50, I or II ? Give the label of your selection.
I

* * *

tested on: HCT116 cells; assay: MTT assay; format: cell-based; settings: Homo sapiens, HCT-116, 72 h, Table 5b; HCT116 cells, 72 hours
measured metric: IC50 (nM)

1. COc1cccc(CCNc2nc(NCc3ccc(C(=O)Nc4ccccc4N)cc3)nc(NC3CC3)n2)c1
2. Nc1nc(CCc2ccc(C(=O)Nc3ccccc3N)cc2)nc(N2CCCCC2)n1
3. COCCNc1nc(NCCc2ccccc2)nc(NCc2ccc(C(=O)Nc3ccccc3N)cc2)n1
4. Nc1ccccc1NC(=O)c1ccc(CNc2nc(NCCc3ccc(Cl)cc3)nc(NC3CC3)n2)cc1
List the 4 molecules shown above, ordered by increasing IC50. To answer, arrange all of the labels according to the requested order.
1, 3, 4, 2

I. COc1nc(NCc2ccc(C(=O)Nc3ccccc3N)cc2)nc(OC)n1
II. Nc1nc(/C=C/c2ccc(C(=O)Nc3ccccc3N)cc2)nc(N2CCCCC2)n1
Endpoint returns whichever of I and II has the numerically higher IC50. Give the label of your selection.
II

* * *

biological target: cloned recombinant human HDAC-1 (Homo sapiens, UniProt Q13547); construct: made in house; host or cells: Baculovirus insect cell expression system; assay: Human HDAC-1 enzyme inhibition, Assay 1 ([3H]-acetylated histone substrate, scintillation counting); assay type: biochemical; settings: Table 5d; read-out: HDAC-1 IC50
measured metric: IC50 (µM)

These solved cases illustrate the format of a correct answer.
COc1cc(/C=C/C(=O)Nc2ccccc2N)ccc1CNc1cc(OC)c(OC)c(OC)c1	20
CC(C)c1ccc(NCc2ccc(/C=C/C(=O)Nc3ccccc3N)cc2)cc1	6
Nc1ccccc1NC(=O)/C=C/c1ccc(CNc2ccc(F)cc2)cc1	15
Nc1ccccc1NC(=O)/C=C/c1ccc(CNc2cccc(F)c2)cc1	4
Nc1ccccc1NC(=O)/C=C/c1ccc(NCCNc2nccs2)nc1	17

A. COc1cc(/C=C/c2ccc(/C=C/C(=O)Nc3ccccc3N)cc2)cc(OC)c1OC
B. N#Cc1cccc(NCc2ccc(C=CC(=O)Nc3ccccc3N)cc2)c1
Hey, which is lower on measured IC50, A or B ? Give the label of your selection.
B

* * *

tested on: HCT116 cells; assay: MTT assay; assay type: cell-based; details: Homo sapiens, HCT-116, 72 h, Table 5F; HCT116 cells, 72 hours
pIC50: −log10 of the molar value.
measured metric: pIC50

COc1cc(N2C(=O)OCC2c2ccc(C(=O)Nc3ccccc3N)cc2)cc(OC)c1OC (stereo not shown)	5.15
COc1cc(CNc2ccc3sc(C(=O)Nc4ccccc4N)cc3c2)cc(OC)c1OC	5.70
Nc1ccccc1NC(=O)c1ccc(CNc2ccc3[nH]c(SCc4cccnc4)nc3c2)cc1	6.70

a. Nc1ccccc1NC(=O)c1ccc(CNc2nc(-c3ccc(Cl)cc3)cs2)cc1
b. Nc1ccccc1NC(=O)c1ccc(CN2C(=O)COc3ccccc32)cc1
Endpoint returns whichever of a and b has the numerically higher pIC50. Give the label of your selection.
a

1. COc1ccc(NCc2ccc(C(=O)Nc3ccccc3O)cc2)cc1OC
2. Nc1ccccc1NC(=O)c1ccc(CNc2ncccn2)cc1
3. Nc1ccccc1NC(=O)c1ccc(CSc2nc3ccc(NCc4ccccn4)cc3s2)cc1
4. CN1C(=O)C2(OCCO2)c2cc(NCc3ccc(C(=O)Nc4ccccc4N)cc3)ccc21
5. Nc1ccccc1NC(=O)c1ccc(Cn2cnc3ccc(Br)cc3c2=O)cc1
List the 5 entries from lowest pIC50 to highest pIC50 value. To answer, arrange all of the labels according to the requested order.
1, 2, 3, 5, 4

1. Nc1ccccc1NC(=O)c1ccc(CNc2cccc(F)n2)cc1
2. COc1cc(NCc2ccc(-c3ccc(C(=O)Nc4ccccc4N)cc3)cc2)cc(OC)c1OC
Endpoint returns whichever of 1 and 2 has the numerically higher pIC50. Give the label of your selection.
1
(1: 6.00, 2: 5.70)

a. Nc1ccccc1NC(=O)c1ccc(CNc2nc(Cl)cc(NCc3cccnc3)n2)cc1
b. Nc1ccccc1NC(=O)c1ccc(Cn2cnc3ccc(Cl)cc3c2=O)cc1
Hey, which is lower on measured pIC50, a or b ? Give the label of your selection.
a
(a: 6.15, b: 6.40)

a. Nc1ccccc1NC(=O)c1ccc(CNc2ccc(F)cc2)cc1
b. Nc1ccccc1NC(=O)c1ccc(Cn2cnc3ccsc3c2=O)cc1
Endpoint returns whichever of a and b has the numerically higher pIC50. Give the label of your selection.
b

* * *

system: HCT116 cells; test: MTT assay; type: cell-based; conditions: Homo sapiens, HCT-116, 72 h, Table 5F; HCT116 cells, 72 hours
pIC50: −log10 of the molar value.
measured metric: pIC50

These solved cases illustrate the format of a correct answer.
Nc1ccccc1NC(=O)c1ccc(C(=O)Nc2ccccc2N)nc1	5.10
Nc1ccccc1NC(=O)c1ccc(NCCNc2ccccc2)nc1	6.00
COc1ccc(-c2ccnc(NCc3ccc(C(=O)Nc4ccccc4N)cc3)n2)cc1OC	7.00

I. Nc1ccccc1NC(=O)c1ccc(CNc2ccc(N3CCOCC3)cc2)cc1
II. COc1cc(CNc2ccc(C(=O)Nc3ccccc3N)cc2)cc(OC)c1OC
Endpoint returns whichever of I and II has the numerically higher pIC50. Give the label of your selection.
I

* * *

molecular target: cloned recombinant human HDAC-1 (Homo sapiens); construct: made in house; host or cells: Baculovirus insect cell expression system; assay: Human HDAC-1 enzyme inhibition, Assay 1 ([3H]-acetylated histone substrate, scintillation counting); format: biochemical; conditions: Table 5d; read-out: HDAC-1 IC50
measured metric: IC50 (µM)

Nc1ccccc1NC(=O)/C=C/c1ccc(CNc2cccc(S(=O)(=O)NCCCN3CCOCC3)c2)cc1	2

1. Nc1ccccc1NC(=O)/C=C/c1ccc(CNc2ccc(Cc3nnn[nH]3)cc2)cc1
2. Nc1ccccc1NC(=O)/C=C/c1ccc(CNc2ccc([N+](=O)[O-])c(C(F)(F)F)c2)cc1
Hey, which is lower on measured IC50, 1 or 2 ? Give the label of your selection.
2

a. Nc1ccccc1NC(=O)/C=C/c1ccc(CNc2cccc(O)c2)cc1
b. COc1cc(Cl)nc(NCc2ccc(/C=C/C(=O)Nc3ccccc3N)cc2)n1
c. COc1cc(NCc2ccc(/C=C/C(=O)Nc3cscc3N)cc2)cc(OC)c1OC
d. CN1CCN(c2ccc(NCc3ccc(/C=C/C(=O)Nc4ccccc4N)cc3)cc2C(F)(F)F)CC1
List the 4 entries from lowest IC50 to highest IC50 value. To answer, arrange all of the labels according to the requested order.
d, b, c, a
(d: 2 µM, b: 4 µM, c: 6 µM, a: 20 µM)

A. COc1cc(SCc2ccc(/C=C/C(=O)Nc3ccccc3N)cc2)cc(OC)c1OC
B. Nc1ccccc1NC(=O)/C=C/c1ccc(CNc2ccc(I)cc2)cc1
C. Nc1ccccc1NC(=O)/C=C/c1ccc(CNc2cccc(OC(F)(F)F)c2)cc1
# sort list by recorded IC50, greatest to least To answer, arrange all of the labels according to the requested order.
A, C, B
(A: 23 µM, C: 15 µM, B: 4 µM)

P. Nc1ccccc1NC(=O)/C=C/c1ccc(NCCNc2ncccn2)nc1
Q. COc1ccc(-c2ccc(/C=C/C(=O)Nc3ccccc3N)cn2)cc1OC
R. CSc1ccc(NCc2ccc(/C=C/C(=O)Nc3ccccc3N)cc2)cc1C(F)(F)F
S. Nc1ccccc1NC(=O)/C=C/c1ccc(NCc2cccc(OC(F)(F)F)c2)cc1
List the 4 entries from lowest IC50 to highest IC50 value. To answer, arrange all of the labels according to the requested order.
R, P, S, Q

* * *

Molecular target: cloned recombinant human HDAC-1 (Homo sapiens)
Construct: made in house; host or cells: Baculovirus insect cell expression system
Experiment: Human HDAC-1 enzyme inhibition, Assay 1 ([3H]-acetylated histone substrate, scintillation counting)
Assay type: biochemical
Conditions: Table 5b; read-out: Human HDAC-1 IC50
Procedure: Assay 1. HDAC inhibitors were screened against a cloned recombinant human HDAC-1 enzyme expressed and purified from a Baculovirus insect cell expression system. […] The mixture was extracted with ethyl acetate and the released [^3H]-acetic acid was quantified by scintillation counting. […] IC50 values for HDAC enzyme inhibitors were determined by performing dose response curves with individual compounds and determining the concentration of inhibitor producing fifty percent of the maximal inhibition.
measured metric: IC50 (nM)

These solved cases illustrate the format of a correct answer.
Nc1ccccc1NC(=O)c1ccc(CNc2nc(NCCc3ccc(Cl)cc3)nc(NC3CC3)n2)cc1 [Cpd 475]	600
COc1nc(NCc2ccc(C(=O)Nc3ccccc3N)cc2)nc(OC)n1 [Cpd 212]	3000

1. Nc1ccccc1NC(=O)c1ccc(CNc2nc(NCC3CC3)nc(NC3Cc4ccccc4C3)n2)cc1 [Cpd 472]
2. Nc1ccccc1NC(=O)c1ccc(CNc2nc(NCCc3ccccn3)nc(NC3CC3)n2)cc1 [Cpd 480]
Endpoint returns whichever of 1 and 2 has the numerically higher IC50. Give the label of your selection.
1
(1: 3000 nM, 2: 800 nM)
